half-life at 200 μg ml^–1 for assorted compounds
- Protocol description: Chemical stability in aqueous solutions, degradation followed by HPLC
- Assay type: physicochemical
- Assay conditions: aqueous methanol solution in HPLC vials, pH 6.7, 30% MeOH in water, 21 °C, pH 6.7; extrapolated from plots of peak area versus time; read-out: Half-life (t1/2, h) 30% MeOH (converted)
Express your answer in h, writing the number without its unit.

Known half-life at 200 μg ml^–1 results, listed for orientation:
CC1=C[C@H](O/C=C2/C(=O)O[C@@H]3c4ccccc4C[C@H]23)N(C(=O)OC(C)(C)C)C1=O (racemic) [rac-1] = 110
CC1=CC(C2Cc3c(n(C)c4ccccc34)C2=O)NC1=O (racemic) [rac-9] = 1100
CC1=C[C@H](Oc2ccc(Br)cc2)N(C(=O)OC(C)(C)C)C1=O (racemic) [rac-8] = 230
CC1=C[C@H](O/C=C2\Cc3c([nH]c4ccccc34)C2=O)N(C(=O)OC(C)(C)C)C1=O (racemic) [rac-6] = 190
CC1=C[C@H](O/C=C2/C(=O)O[C@H]3c4ccccc4C[C@@H]23)N(C(=O)OC(C)(C)C)C1=O (racemic) [rac-2] = 21

Prompt line: Suppose we examine the compound CC1=C[C@H](O/C=C2\Cc3c(n(C)c4ccccc34)C2=O)NC1=O (racemic) [rac-5] ; what half-life at 200 μg ml^–1 value has been reported?
Response line: 2

Prompt line: Fill blank: measured half-life at 200 μg ml^–1 of the compound CC1=C[C@H](Oc2ccc(Br)cc2)NC1=O (racemic) [rac-7] is ____.
Response line: 11
